measurement description: NCI Yeast Anticancer Drug Screen. Data for the bub3 strain (AID 167)
condition info: S. cerevisiae bub3 mutant strain, at 33.0 µM
This is part of a sample that, as a whole, favours compounds with a hit. Of some 79,000 tested, about 15% had one in any assay. Activity calls are given as the source filed them. Cut-off read from the data, not from the text of the source: active = growth inhibition above about 70%; inactive = the rest.
Can you answer with just one of these options? active, inactive

Worked set:
item smiles: O=C1C=C(Br)C(=O)c2ccccc21
class label: active
--
item smiles: Cc1ccc(NC(Nc2ccc(C)cc2C)=C(C(Cl)=C(Cl)Cl)[N+](=O)[O-])c(C)c1
class label: active
--
item smiles: C1=CCN([B-](c2ccccc2)[C+]2CCCCC2)C=C1
class label: active
--
item smiles: CCS(=O)(=O)Nc1ccc(Nc2c3ccccc3nc3ccccc23)c(OC)c1
class label: inactive
--
item smiles: CNC(=O)OCc1c2ccncc2c(C)c2c1[nH]c1ccccc12
class label: inactive
--
item smiles: CCOP(=O)(OCC)/C(C#N)=C/c1ccc(-c2ccc(F)cc2F)o1
class label: inactive
--
item smiles: CCN(CC)CCC(=O)Nc1ccc2sc3ccccc3c(=O)c2n1
class label: inactive

Field: next molecule
I would be grateful if you could indicate the recorded call for COC(=O)c1cnc(Cl)c([N+](=O)[O-])c1 .
active

* * *

measurement description: NCI Yeast Anticancer Drug Screen. Data for the wt2 strain (AID 169);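 note: 0% = growth of vehicle-treated yeast cultures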
condition info: S. cerevisiae wt2 strain growth inhibition; at 33.0 µM; hits give high values
Compounds without any hit were thinned out: in the full panel of roughly 79,000, 15% have a hit.
Parameter growth inhibition: see the listing below.
Your answer should be a plain number; it is taken to be in %.

molecule: CCOC(=O)CC1(C)/C(=N\Nc2ccc([N+](=O)[O-])cc2[N+](=O)[O-])CCC2C1CCC1(C)C(C(C)CCCC(C)C)CCC21 (configuration not stated)
growth inhibition / %: -1

I would be grateful if you could share the reported growth inhibition for CSC(=S)N/N=C/c1ccccc1 .
28

Reported growth inhibition, molecule O=[N+]([O-])c1ccc2[nH]c3c(-c4ccccc4)nccc3c2c1 : ____
98

Requested read-out: growth inhibition. Entry: COc1ccc2nc3cccc([N+](=O)[O-])c3c(NCCNCCO)c2c1
35

Quick one: growth inhibition of O=C1C[C@H]2[C@H](c3ccc(Br)cc3)[C@H]3C(=O)c4ccccc4NC(=O)[C@@H]3[C@@]2(O)c2ccccc2N1 ?
28

Quick one: growth inhibition for OC(Cc1cccc2ccccc12)CN1CCC(c2ccccc2)CC1 (configuration not stated) ?
84

// lookup growth inhibition for Nc1cc2c(cc1N)-c1ccccc1C2=O
1

Given Oc1c2c(c(O)c3ccccc13)C1(N=N2)c2ccccc2Oc2ccccc21 , state its recorded growth inhibition.
97

Returns the measured growth inhibition for the input molecule. Input: C/C1=C/C2OC(=O)C3(C)C2C(CC2(C)OC1=CC2=O)OC3(O)C(C)C (configuration not stated)
79

I would be grateful if you could share the reported growth inhibition for CC(C)S(=O)(=O)/C=C\S(=O)(=O)C(C)C .
90

// growth inhibition lookup, key: COc1ccc(C(C)c2cc3c(cc2OC(C)O)OCO3)cc1 (configuration not stated)
-2

Please look up its growth inhibition: CCN(CC)CCC(=O)Nc1ccc2sc3ccccc3c(=O)c2n1
16

* * *

measurement description: NCI Yeast Anticancer Drug Screen. Data for the rad50EPP+ strain (AID 151);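 note: 0% = growth of vehicle-treated control cultures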
condition info: S. cerevisiae rad50 mutant strain, at 11.0 µM
The panel holds about 79,000 compounds, 15% with a hit somewhere; the sample as a whole holds those more often. The source made the active and inactive calls. Rule as the data show it: active = growth inhibition above about 70%; inactive = the rest.
Permitted responses: active, inactive

item smiles: NC(N)=NS(=O)(=O)c1ccc(Nc2c3ccccc3nc3c(C(=O)NC(CO)(CO)CO)cccc23)cc1
class label: inactive

Which result was noted for this compound in the test: CCCN=Cc1cc(Cc2ccc(O)c(C=NCCC)c2)ccc1O
active

Entry O=C(Cc1ccccc1)NNc1nc(NNC(=O)c2ccncc2)nc(Nc2ccc(Cl)cc2)n1 : call = ?
inactive
